B1: CPEB3 Ribozyme (parent)
chain: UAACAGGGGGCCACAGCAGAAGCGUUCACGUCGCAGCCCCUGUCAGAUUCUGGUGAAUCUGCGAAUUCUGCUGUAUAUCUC

variants of: B1; test: self-cleavage, relative activity (ratio to wild type); higher = more cleavage; in vitro, sequencing
// reported self-cleavage for each item listed
Endpoint: self-cleavage

> print(dat)
                          construct.sequence  observed.value
 1  UAACAGGGGGCCACAGCAGAAGCGUUCGCGUCGCAGCCCCUGUCAGAUCCUGGUGAAUCUGCGAAUUCUGCUGUAUAUCUC            0.22
 2  UAACAGGGGGCCACAGCAGAAGCGUUCACGUCGCAGCCCCUGUCAGAUUCUGGUGAAUCUGCGAAUUCUGCUGUUUGUCUC            1.18
 3  UAACAGGAGGCCACAGCAGAAGCGCUCACGUCGCAGCCCCUGUCAGAUUCUGGUGAAUCUGCGAAUUCUGCUGUAUAUCUC            0.26
 4  UAACAGGGGGCCACAGCAGGAGCGUUCACGUCGCAGCCCCUGCCAGAUUCUGGUGAAUCUGCGAAUUCUGCUGUAUAUCUC             0.4
 5  UAACAGGGGACCACAGCAGAAGCGUUCACGUCGCAGCCCCUGUCAGAUUCUGGUGAAACUGCGAAUUCUGCUGUAUAUCUC            0.24
 6  UAACAGGGGGCCACAGCAGAAGCGUUCACGUCGCAGCCCCUGUCAAAUUCUGGUGAAUCAGCGAAUUCUGCUGUAUAUCUC             0.5
 7  UAGCAGGGGGCCACAGCAGAAGCGUUCACGUCGCAGCCCCUGUCAGAUUCUGGUGAAUCUGCGAAUUCUGCUGUACAUCUC            1.15
 8  UAAUAGGGGGCCACAGCAGAAGCGUUCACGUCGCAGCCCCUGUCAGAUUCUGGUGAAUCUGCGAAUUCUGCUGCAUAUCUC            1.18
 9  UAGCAGGGGGCCACAGCAGAAGCGUUCACGUCGGAGCCCCUGUCAGAUUCUGGUGAAUCUGCGAAUUCUGCUGUAUAUCUC            0.43
10  UAACAGGGGGCCACAGCAGAAGCGUUCACGUCGCAGCCCCCGUCAGAUUGUGGUGAAUCUGCGAAUUCUGCUGUAUAUCUC            0.96
11  UAACAGGGGGCCACAGCAGAAGCGCUCACGUCGCAGCCCCUGUCAGAUUCUGGUGAAUUUGCGAAUUCUGCUGUAUAUCUC            0.28
12  UAACAGGGGGCCACAGCAGAAGCGUUCACGUCGCAGCCCCUGUCAGAUUCUGGUGAAUCAGCAAAUUCUGCUGUAUAUCUC            0.61
13  UAACAGGGGGCCACAGCAGUAGCGUUCACGUCGCAGCCCCUGUCAGAUUCUGGUGAAUGUGCGAAUUCUGCUGUAUAUCUC            0.24
14  UAAAAGGGGGCCACAGCAGAAGCGUUCACGUCGCAGCCCCUGUCAGAUUCUGGUGAAUCUGCGAAUUCUGCUGUAUAUCCC            1.11
15  UAACAGGGGGCCACAGCAGAAGCGUUCACGUCGCAGUCCCUGUCAGAUUCUGGAGAAUCUGCGAAUUCUGCUGUAUAUCUC            0.82
16  UAACAGGGGGCCACAGCAGAAGCGUACACGUCGCAGCCCCUGUCAGAUUCUGGUGAAUCAGCGAAUUCUGCUGUAUAUCUC            0.52
17  UAACAGGGGGCCACAGCAGAAGCGUUCAUGUCGCAGCCCCUGUCAGAUUCUGGUGAAUCUGCGAAUUCUGCUGUAUAACUC            0.36
18  UAACAGGGGGCCACAGCAGAAGCGUUCACGACGCAGCCCCUAUCAGAUUCUGGUGAAUCUGCGAAUUCUGCUGUAUAUCUC            0.18
19  UAACAGGGGGCCACAGCAGAAGCGUUCACGUCGCAGCCCCUGUCAGAUUCUGGUGUAUCUGCGAAUUCUGCAGUAUAUCUC            0.46
20  UAACAGGGGGCCACAGCAGAAGCGUUCACGUCGCAGCCCCUGUCAGAUUCUGGUGAAUCCGCCAAUUCUGCUGUAUAUCUC            0.54
21  UAACAGGGGGCCACAGCAGAAGCGUUCACGUCGCAGCCCCUGUCAGAUACUGGUGAAUCUGCGAAUUCCGCUGUAUAUCUC            0.44
22  UAAAAGGGGACCACAGCAGAAGCGUUCACGUCGCAGCCCCUGUCAGAUUCUGGUGAAUCUGCGAAUUCUGCUGUAUAUCUC            0.59
